src = paper PMC9845116

- Tested on: Hela
- measurement-description: MTT cell viability assay, Hela
- Format: cell-based
- condition-description: Homo sapiens, HeLa, 48 h, read-out: IC50(μM) Hela, MTT, 48 h, Hela
Measured IC50, listed per entry.
Could you give me the number in µM? Just the number is fine.

Exercise: Look up IC50 with Hela for this compound: `COc1cc(OC)c(C(=O)/C=C/c2ccoc2)c(OC)c1`
Solution: 81.3

Exercise: Entry `COc1cc(OC)c(C(=O)/C=C/c2ccc(-c3ccccc3)cc2)c(OC)c1` please
Solution: 46.3

* * *

Below, each of the compounds is paired with its reported IC50 value.
- System: Hela
- measurement-description: MTT cell viability assay, Hela
- Format: cell-based
- condition-description: Homo sapiens, HeLa, 48 h, read-out: IC50(μM) Hela, MTT, 48 h, Hela
Write the number in µM without appending the unit.

Exercise: Form field: IC50 recorded for `COc1cc(OC)c(C(=O)/C=C/c2cnc3ccccc3c2)c(OC)c1` with Hela (enter value)
Solution: 13.6

Exercise: Then this compound: `COc1cc(OC)c(C(=O)/C=C/c2cc3cc(C)ccc3[nH]c2=O)c(OC)c1`
Solution: 4.91

Exercise: Queued: `COc1cc(OC)c(C(=O)/C=C/c2ccc(OCC3CCCC3)cc2)c(OC)c1`
Solution: 22.6

* * *

- Tested on: MCF-7
- measurement-description: MTT cell viability assay, MCF-7
- Type: cell-based
- condition-description: Homo sapiens, MCF7, 48 h, read-out: IC50(μM) MCF-7, MTT, 48 h, MCF-7
Field: class. Source value: IC50. Ranges: 1 = under 10 µM, 2 = from 10 µM up to 50 µM, 3 = 50 µM and over

Exercise: Quick check: band for `COc1cc(OC)c(C(=O)/C=C/c2cccc(Br)n2)c(OC)c1`
Solution: 1

Exercise: Try the compound O=c1[nH]cc(F)c(=O)[nH]1 [5-Fu, 5-fluorouracil, reference compound]
Solution: 3

Exercise: Try `COc1cc(OC)c(C(=O)/C=C/c2ccccn2)c(OC)c1` next.
Solution: 1

Exercise: How about this compound: `COc1cc(OC)c(C(=O)/C=C/c2cc3cc(F)ccc3[nH]c2=O)c(OC)c1`
Solution: 2

Exercise: Continue with `COc1cc(OC)c(C(=O)/C=C/c2cn(C)c3ccccc23)c(OC)c1`
Solution: 3

Exercise: # repeat for `COc1cc(OC)c(C(=O)/C=C/c2cc3cc(C)ccc3[nH]c2=O)c(OC)c1`
Solution: 2

Exercise: Also `COc1cc(OC)c(C(=O)/C=C/c2ccc(OCc3ccc(Br)cc3)cc2)c(OC)c1` ?
Solution: 3

Exercise: Ok, now `COc1cc(OC)c(C(=O)/C=C/c2ccc(OCc3cc4ccccc4[nH]c3=O)cc2)c(OC)c1`
Solution: 3

Exercise: Repeat with `COc1cc(OC)c(C(=O)/C=C/c2c(OC)cc(OC)c(C)c2OC)c(OC)c1`
Solution: 3

Exercise: Let us now turn to `COc1cc(OC)c(C(=O)/C=C/c2ccc(OCC3CCCCC3)cc2)c(OC)c1`
Solution: 3

* * *

- System: MCF-7
- measurement-description: MTT cell viability assay, MCF-7
- Assay type: cell-based
- condition-description: Homo sapiens, MCF7, 48 h, read-out: IC50(μM) MCF-7, MTT, 48 h, MCF-7
Overview of recorded IC50 for various compounds
Please give a number only; it is taken to be in µM.

Some entries whose results are on file:
>>> numeric_readout("COc1cc(OC)c(C(=O)/C=C/c2ccc(-c3ccc(F)cc3)cc2)c(OC)c1 [B13]")
35.3
>>> numeric_readout("COc1cc(OC)c(C(=O)/C=C/c2ccc(Br)cn2)c(OC)c1 [B3]")
3.85
>>> numeric_readout("COc1cc(OC)c(C(=O)/C=C/c2cnc3ccccc3c2)c(OC)c1 [B10]")
10.7

Proceeding to the next compound to report its IC50.
Exercise: Item: COc1cc(OC)c(C(=O)/C=C/c2ccsc2)c(OC)c1 [B5] Test system: MCF-7 Read-out: IC50 Value: ?
Solution: 35.8

* * *

- Tested on: HepG2
- measurement-description: MTT cell viability assay, HepG2
- Format: cell-based
- condition-description: Homo sapiens, HepG2, 48 h, read-out: IC50(μM) HepG2
Below is a list of entries, each paired with its recorded log10(IC50) value.
Values below are the log10 of the recorded IC50, with µM as the unit.

>>> numeric_readout("COc1cc(OC)c(C(=O)/C=C/c2ccc(Br)cn2)c(OC)c1 [B3]")
0.76

Exercise: May I ask what log10(IC50) has been recorded for COc1cc(OC)c(C(=O)/C=C/c2cc3cc(C)ccc3[nH]c2=O)c(OC)c1 [B15] ?
Solution: 1.26

Exercise: Then COc1cc(OC)c(C(=O)/C=C/c2ccc(OCC3CC3)cc2)c(OC)c1 [C1] ?
Solution: 1.59

Exercise: Repeat with COc1cc(OC)c(C(=O)/C=C/c2ccoc2)c(OC)c1 [B7]
Solution: 1.79

Exercise: // repeat for COc1cc(OC)c(C(=O)/C=C/c2ccc(-c3ccccc3)cc2)c(OC)c1 [B12] and report
Solution: 1.58

Exercise: And COc1cc(OC)c(C(=O)/C=C/c2cccc(Br)n2)c(OC)c1 [B2] ?
Solution: 0.85

Exercise: Next up: COc1cc(OC)c(C(=O)/C=C/c2ccc(OCc3ccsc3)cc2)c(OC)c1 [C7]
Solution: 1.71

* * *

- Tested on: Hela
- measurement-description: MTT cell viability assay, Hela
- Format: cell-based
- condition-description: Homo sapiens, HeLa, 48 h, read-out: IC50(μM) Hela, MTT, 48 h, Hela
Entries and their IC50

These recorded examples may help you get a feel for the data.
>>> result("COc1cc(OC)c(C(=O)/C=C/c2c(OC)cc(OC)c(C)c2OC)c(OC)c1")
"> 100 µM"
>>> result("COc1cc(OC)c(C(=O)/C=C/c2cc3ccccc3[nH]c2=O)c(OC)c1")
"35 µM"
>>> result("COc1cc(OC)c(C(=O)/C=C/c2ccc(OCC3CC3)cc2)c(OC)c1")
"45.5 µM"
>>> result("O=c1[nH]cc(F)c(=O)[nH]1 [5-Fu, 5-fluorouracil, reference compound]")
"43.8 µM"

Exercise: Any idea what IC50 was measured for `COc1cc(OC)c(C(=O)/C=C/c2ccc(OCc3ccsc3)cc2)c(OC)c1` ?
Solution: 35 µM

* * *

- Tested on: MCF-7
- measurement-description: MTT cell viability assay, MCF-7
- Type: cell-based
- condition-description: read-out: IC50(μM) MCF-7; MTT, 48 h, MCF-7
measurement-type: IC50
Express your answer as a number followed by its unit.

Exercise: Name the reported IC50 value associated with the compound `COc1cc(OC)c(C(=O)/C=C/c2ccc(Br)cn2)c(OC)c1`
Solution: 3.85 µM

* * *

- System: Hela
- measurement-description: MTT cell viability assay, Hela
- Format: cell-based
- condition-description: Homo sapiens, HeLa, 48 h, read-out: IC50(μM) Hela, MTT, 48 h, Hela
Doc: threshold 20 µM (exclusive). Items with IC50 beneath it return criterion met; others return criterion not met.

Look over these answered cases.
>>> assigned_category("COc1cc(OC)c(C(=O)/C=C/c2ccc(Br)cn2)c(OC)c1")
"criterion met"
>>> assigned_category("COc1cc(OC)c(C(=O)/C=C/c2ccsc2)c(OC)c1")
"criterion not met"
>>> assigned_category("COc1cc(OC)c(C(=O)/C=C/c2ccc(OCc3ccc4ccccc4c3)cc2)c(OC)c1")
"criterion not met"
>>> assigned_category("COc1cc(OC)c(C(=O)/C=C/C2=CSC(Br)=CC2)c(OC)c1")
"criterion met"
>>> assigned_category("COc1cc(OC)c(C(=O)/C=C/c2ccc(Br)cc2)c(OC)c1")
"criterion met"

Turning to the following compound.
Exercise: Does the reported IC50 of `COc1cc(OC)c(C(=O)/C=C/c2ccccc2)c(OC)c1` stay below 20 µM?
Solution: criterion not met

* * *

Listing: IC50 of selected compounds
- Tested on: Hela
- measurement-description: MTT cell viability assay, Hela
- Type: cell-based
- condition-description: Homo sapiens, HeLa, 48 h, read-out: IC50(μM) Hela, MTT, 48 h, Hela

Below are worked cases with known answers.
>>> result("COc1cc(OC)c(C(=O)/C=C/c2cccc(Br)n2)c(OC)c1")
"6.48 µM"
>>> result("COc1cc(OC)c(C(=O)/C=C/c2ccccn2)c(OC)c1")
"11.9 µM"
>>> result("COc1cc(OC)c(C(=O)/C=C/c2ccc(-c3ccc(F)cc3)cc2)c(OC)c1")
"30.5 µM"
>>> result("COc1cc(OC)c(C(=O)/C=C/c2ccc(OCc3cc4ccccc4[nH]c3=O)cc2)c(OC)c1")
"> 100 µM"

# ---- query compound ----
Exercise: Please report the recorded IC50 for `COc1cc(OC)c(C(=O)/C=C/c2coc(Br)c2)c(OC)c1` .
Solution: 49.8 µM
